Hi there, I'd appreciate the recorded Herbicidal effects index number, Monochoria vaginalis for every entry that follows.
Test system: Monochoria vaginalis
Assay: Herbicidal activity by paddy field soil treatment (Test Example 1)
Format: in vivo
Set-up: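 index 0 to 10 in 10% steps of herbicidal effect with 10 meaning complete death and 0 below 10%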
Settings: 1000 g of effective component per hectare, evaluated on day 21 after the treatment, criteria of Table 72

Record Herbicidal effects index number, Monochoria vaginalis per entry; entries follow.
1. COCCCn1c(=O)c(C(=O)C2=C(O)CCCC2=O)nn(C)c1=O [I-41]
2. Cn1nc(C(=O)C2=C(O)CCCC2=O)c(=O)n(-c2ccc(F)cc2F)c1=O [I-78]
3. Cc1cc(C)c(-n2c(=O)c(C(=O)O)nn(C)c2=O)c(C)c1 [V-366]

1: 8; 2: 10; 3: 10

Record Herbicidal effects index number, Monochoria vaginalis per entry; entries follow.
1. Cn1nc(C(=O)C2=C(O)CCCC2=O)c(=O)n(CC(=O)OC(C)(C)C)c1=O [I-294]
2. Cn1nc(C(=O)C2=C(O)CCCC2=O)c(=O)n(-c2ccccc2)c1=S [I-263]
3. COc1cc(-n2c(=O)c(C(=O)C3=C(O)CCCC3=O)nn(C)c2=O)c(F)cc1Cl [I-297]
4. COc1cc(-n2c(=O)c(C(=O)C3=C(O)CCCC3=O)nn(C)c2=O)ccc1F [I-111]
5. Cc1cc(-n2c(=O)c(C(=O)C3=C(O)CCCC3=O)nn(C)c2=O)ccc1F [I-115]
6. Cc1ncccc1-n1c(=O)c(C(=O)C2=C(O)CCCC2=O)nn(C)c1=O [I-277]
7. Cc1ccc(-n2c(=O)c(C(=O)C3=C(O)CCCC3=O)nn(C)c2=O)cc1C [I-87]
8. Cn1nc(C(=O)C2=C(O)CCCC2=O)c(=O)n(-c2cccc(Cl)c2)c1=O [I-52]

1. 9
2. 10
3. 10
4. 10
5. 10
6. 9
7. 10
8. 10

###

Hi there, I'd appreciate the recorded Herbicidal effects index number, Monochoria vaginalis for every entry that follows.
System: Monochoria vaginalis
Assay: Herbicidal activity by paddy field soil treatment (Test Example 1)
Format: in vivo
Set-up: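 index 0 to 10 in 10% steps of herbicidal effect with 10 meaning complete death and 0 below 10%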
Conditions: 1000 g of effective component per hectare, evaluated on day 21 after the treatment, criteria of Table 72
Answers are plain numbers.

# count of solved cases: 5
CCCCn1c(=O)c(C(=O)C2=C(O)CCCC2=O)nn(C)c1=O: 10
CCCCn1c(=O)c(C(=O)C2=C(O)CCCC2=O)nn(-c2ccccn2)c1=O: 9
Cn1nc(C(=O)C2=C(O)CCCC2=O)c(=O)n(-c2ccc(F)c(F)c2)c1=O: 10
Cn1nc(C(=O)C2=C(O)CCCC2=O)c(=O)n(-c2ccccc2Cl)c1=O: 10
Cc1ccc(-n2c(=O)c(C(=O)C3=C(O)C(C)(C)C(=O)C(C)(C)C3=O)nn(C)c2=O)c(C)c1: 10

Record Herbicidal effects index number, Monochoria vaginalis per entry; entries follow.
1. COc1cc(OC)nc(-n2c(=O)c(C(=O)C3=C(O)CCCC3=O)nn(C)c2=O)n1
2. CN(c1ccccc1)n1c(=O)c(C(=O)C2=C(O)CCCC2=O)nn(C)c1=O
3. Cc1ccc(C(F)(F)F)cc1-n1c(=O)c(C(=O)C2=C(O)CCCC2=O)nn(C)c1=O
4. Cn1nc(C(=O)C2=C(O)CCCC2=O)c(=O)n(-c2ccc(Cl)cc2Cl)c1=O

1: 9; 2: 10; 3: 10; 4: 10

###

Tested on: Monochoria vaginalis
Experiment: Herbicidal activity by paddy field soil treatment (Test Example 1)
Format: in vivo
Set-up: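 index 0 to 10 in 10% steps of herbicidal effect with 10 meaning complete death and 0 below 10%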
Conditions: 1000 g of effective component per hectare, evaluated on day 21 after the treatment, criteria of Table 72
Hi there, I'd appreciate the recorded Herbicidal effects index number, Monochoria vaginalis for every entry that follows.
Answers are plain numbers.

# count of solved cases: 2
COc1cc(-n2c(=O)c(C(=O)C3=C(O)CCCC3=O)nn(C)c2=S)cc(OC)c1OC [I-464]: 10
Cc1ccc(-n2c(=O)c(C(=O)O)nn(C)c2=S)nc1 [V-291]: 8

Record Herbicidal effects index number, Monochoria vaginalis per entry; entries follow.
1. COc1cc(Cl)cc(-n2c(=O)c(C(=O)C3=C(O)CCCC3=O)nn(C)c2=O)c1 [I-120]
2. Cn1nc(C(=O)C2=C(O)CCCC2=O)c(=O)n(-c2ccsc2)c1=O [I-199]
3. Cn1nc(C(=O)O)c(=O)n(-c2c(F)c(F)cc(F)c2F)c1=O [V-363]

[10, 8, 10]

###

System: Monochoria vaginalis
Experiment: Herbicidal activity by paddy field soil treatment (Test Example 1)
Format: in vivo
Parameters: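 index 0 to 10 in 10% steps of herbicidal effect with 10 meaning complete death and 0 below 10%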
Conditions: 1000 g of effective component per hectare, evaluated on day 21 after the treatment, criteria of Table 72
Quantity Kind: Herbicidal effects index number, Monochoria vaginalis
One number for each entry.

# count of solved cases: 5
Cn1nc(C(=O)C2=C(O)CCCC2=O)c(=O)n(-c2ccccc2)c1=O: 10
CC(C)c1ccccc1-n1c(=O)c(C(=O)C2=C(O)CCCC2=O)nn(C)c1=O: 10
Cn1nc(C(=O)C2=C(O)C(C)(C)CCC2=O)c(=O)n(-c2ccccc2)c1=O: 10
C#CCn1c(=O)c(C(=O)C2=C(O)CCCC2=O)nn(C)c1=O: 10
Cn1nc(C(=O)C2=C(O)CCCC2=O)c(=O)n(-c2cccs2)c1=O: 10

Record Herbicidal effects index number, Monochoria vaginalis per entry; entries follow.
1. Cn1nc(C(=O)C2=C(O)CCCC2=O)c(=O)n(-c2ccc(Cl)cc2)c1=O
2. Cc1ccc(-n2c(=O)c(C(=O)C3=C(O)CCCC3=O)nn(C)c2=O)c(F)c1
3. CN(c1ccc(F)cc1)n1c(=O)c(C(=O)C2=C(O)CCCC2=O)nn(C)c1=O
4. Cn1nc(C(F)(F)F)cc1-n1c(=O)c(C(=O)C2=C(O)CCCC2=O)nn(C)c1=O

1: 7; 2: 10; 3: 10; 4: 8

###

Tested on: Scirpus juncoides Rocxb.
Test: Herbicidal activity by paddy field soil treatment (Test Example 1)
Assay type: in vivo
Design: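 index 0 to 10 in 10% steps of herbicidal effect with 10 meaning complete death and 0 below 10%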
Details: applied on water surface, 1000 g of effective component per hectare, day 21 after the treatment
Quantity Kind: herbicidal effect index, S. juncoides Rocxb.
One number for each entry.

Record herbicidal effect index, S. juncoides Rocxb. per entry; entries follow.
1. Cn1nc(C(=O)C2=C(O)CCCC2=O)c(=O)n(-c2ccccc2)c1=O
2. CCn1c(=O)c(C(=O)C2=C(O)CCCC2=O)nn(-c2ccccn2)c1=O
3. Cn1nc(C(=O)C2=C(O)CCCC2=O)c(=O)n(-c2ccc(F)cc2)c1=S
4. Cn1nc(C(=O)C2=C(O)CCCC2=O)c(=O)n(-c2c(F)c(F)cc(F)c2F)c1=O
5. Cn1nc(C(=O)C2=C(O)CCCC2=O)c(=O)n(CC(=O)C(C)(C)C)c1=O

1. 10
2. 8
3. 10
4. 10
5. 10

Record herbicidal effect index, S. juncoides Rocxb. per entry; entries follow.
1. COCCCn1c(=O)c(C(=O)C2=C(O)CCCC2=O)nn(C)c1=O
2. Cc1ncccc1-n1c(=O)c(C(=O)C2=C(O)CCCC2=O)nn(C)c1=O
3. Cn1nc(C(=O)C2=C(O)CCCC2=O)c(=O)n(-c2ccsc2)c1=O
4. CCCCCCn1c(=O)c(C(=O)C2=C(O)CCCC2=O)nn(C)c1=O
5. Cc1cccc(-n2c(=O)c(C(=O)C3=C(O)CCCC3=O)nn(C)c2=O)c1

1. 10
2. 10
3. 9
4. 8
5. 10

Record herbicidal effect index, S. juncoides Rocxb. per entry; entries follow.
1. CC(=O)Cn1c(=O)c(C(=O)C2=C(O)CCCC2=O)nn(C)c1=O
2. CCc1ccc(-n2c(=O)c(C(=O)C3=C(O)CCCC3=O)nn(C)c2=O)nc1
3. Cc1cc(F)ccc1-n1c(=O)c(C(=O)C2=C(O)CCCC2=O)nn(C)c1=O
4. Cn1nc(C(=O)C2=C(O)CC(C)(C)CC2=O)c(=O)n(-c2ccccc2)c1=O
5. Cn1nc(C(=O)C2=C(O)CCCC2=O)c(=O)n(-c2cccc(F)c2)c1=O
6. COc1ccccc1-n1c(=O)c(C(=O)C2=C(O)CCCC2=O)nn(C)c1=O
7. COc1ccc(-n2c(=O)c(C(=O)C3=C(O)CCCC3=O)nn(C)c2=O)cn1
8. Cn1nc(C(=O)C2=C(O)CCCC2=O)c(=O)n(C2CC2)c1=O

[10, 10, 10, 10, 10, 10, 10, 10]

Can you share its herbicidal effect index, S. juncoides Rocxb.? I mean this compound: "Cn1nc(C(=O)C2=C(O)CCCC2=O)c(=O)n(N2CCOCC2)c1=O"
10

###

Test system: Echinochloa crus-galli
Assay: Herbicidal activity by field soil treatment (Test example 2)
Format: in vivo
Set-up: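 index 0 to 10 in 10% steps of herbicidal effect with 10 meaning complete death and 0 below 10%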
Details: 1000 g effective component per hectare, day 21 after the treatment
Hi there, I'd appreciate the recorded herbicidal effect index, Echinochloa crus-galli for every entry that follows.
Numbers only.

Cc1cnc(-n2c(=O)c(C(=O)C3=C(O)CCCC3=O)nn(C)c2=O)cn1 [I-292]: 7

Record herbicidal effect index, Echinochloa crus-galli per entry; entries follow.
1. Cn1nc(C(=O)C2=C(O)CCCC2=O)c(=O)n(-c2ccc(F)cn2)c1=O [I-184]
2. Cc1cc(-n2c(=O)c(C(=O)C3=C(O)CCCC3=O)nn(C)c2=O)ccc1F [I-115]
3. Cn1nc(C(=O)C2=C(O)CCCC2=O)c(=O)n(C2C=CCCC2)c1=O (stereo not drawn) [I-303]
4. Cc1ccccc1-n1c(=O)c(C(=O)C2=C(O)CCCC2=O)nn(C)c1=O [I-57]
5. Cc1cccc(-n2c(=O)c(C(=O)C3=C(O)CCCC3=O)nn(C)c2=O)c1Cl [I-127]
6. Cn1nc(C(=O)C2=C(O)CCCC2=O)c(=O)n(-c2cccc(F)c2)c1=O [I-55]
7. Cn1nc(C(=O)C2=C(O)CCCC2=O)c(=O)n(-c2cc(F)cc(F)c2)c1=O [I-76]
8. Cn1nc(C(=O)C2=C(O)CCCC2=O)c(=O)n(-c2ccc(Cl)nc2)c1=O [I-280]

8
9
9
10
10
10
10
9
